- System: SU-DHL-4 cells
- testDescription: Inhibitory effect on cell viability in SU-DHL-4 cell line (Test Example 1)
- Format: cell-based, human
- settings: SU-DHL-4 cells, 72 hours, Cell Counting Kit-8; concentration showing 90% inhibition of cell viability; read-out: SU-DHL-4 Cell Viability Inhibition Rate IC90
observedProperty: IC90 (nM)
Numbers only, in nM.

Look up IC90: Cc1sc2c(c1C)C(c1ccc(C(=O)NC3CCN(C(=O)c4ccc(C5=N[C@@H](CC(=O)OC(C)(C)C)c6nnc(C)n6-c6sc(C)c(C)c65)cc4)CC3)cc1)=N[C@@H](CC(=O)OC(C)(C)C)c1nnc(C)n1-2 [Compound 1i]
0.54

Could you tell me IC90 for each of these molecules? They are listed below.
1. CCC(=O)N1c2ccccc2[C@H](Nc2ccc(NC(=O)CCCC(=O)NC3CCC(Cn4c(CC)cc5c4CCCC5=O)CC3)cc2)C[C@@H]1C (stereo partly drawn) [Compound 17b]
2. CCC(=O)N1c2ccccc2[C@H](Nc2ccc(C(=O)NCC#CC(=O)NC3CC(N[C@@H]4C[C@H](C)N(C(=O)CC)c5ccccc54)C3)cc2)C[C@@H]1C (relative stereo) [Compound 10f]

1.74
0.92
